Molecular target: Recombinant human his-tagged IGF 1R extracellular domain protein (human) (UniProt P08069)
Assay: SPR, captured IgG, IGF-1R ECD-his analyte, dissociation pH 7.4
OBSERVATION_TYPE: Kd (nM)
Give bare numbers, in nM.

Known results for binders:
BINDER	OBSERVATION_TYPE	RECORDED_VALUE
VRDN-02518 (antibody, V domains shown) VH: EVQLVQSGGGLVKPGGSLRLSCAASGFTFSSFAMHWVRQAPGKGLEWISVIDTRGATYYADSVKGRFTISRDNAKNSLYLQMNSLRAEDTAVYYCARHGNFYYGMDVWGQGTTVTVSS VL: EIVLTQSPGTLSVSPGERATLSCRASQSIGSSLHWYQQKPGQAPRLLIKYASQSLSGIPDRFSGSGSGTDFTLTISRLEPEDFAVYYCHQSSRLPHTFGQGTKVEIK	Kd	0.549
VRDN-02520 (antibody, V domains shown) VH: EVQLVQSGGGLVKPGGSLRLSCAASGFTFSSFAMHWVRQAPGKGLEWISVIDTRGATYYADSVKGRFTISRDNAKNSLYLQMNSLRAEDTAVYYCARLGHFYYGMDVWGQGTTVTVSS VL: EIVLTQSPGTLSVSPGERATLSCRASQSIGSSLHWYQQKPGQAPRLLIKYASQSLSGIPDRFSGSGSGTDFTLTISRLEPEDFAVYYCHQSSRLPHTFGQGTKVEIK	Kd	0.0069

Would you kindly share the measured Kd for VRDN-02517 (antibody, V domains shown) VH: EVQLVQSGGGLVKPGGSLRLSCAASGFTFSSFAMHWVRQAPGKGLEWISVIDTRGATYYADSVKGRFTISRDNAKNSLYLQMNSLRAEDTAVYYCAHLGNFYYGMDVWGQGTTVTVSS VL: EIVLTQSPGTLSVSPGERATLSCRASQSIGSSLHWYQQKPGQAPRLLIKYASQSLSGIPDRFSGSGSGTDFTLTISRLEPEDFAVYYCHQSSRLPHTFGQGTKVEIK ?
10.7
